Examples of sequences with documented recombinant barcode read abundance (log10) follow.
- assay_method_text: recombinant barcode read abundance after kanamycin selection (control-corrected) (log10(CPM+1)); higher = more efficient recombination; sequences stand for … in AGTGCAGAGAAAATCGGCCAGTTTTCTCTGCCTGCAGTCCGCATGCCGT…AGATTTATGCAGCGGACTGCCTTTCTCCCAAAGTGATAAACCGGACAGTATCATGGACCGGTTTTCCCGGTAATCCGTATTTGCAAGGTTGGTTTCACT; site = the 11-nt target;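 further: IS621 recombinase and bridge RNA in Escherichia coli cells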

Solved entries (count: 5):
In [3]: df
Out[3]:
                             sequence_chain  result
0  TGTAGTCCTTGGGTTCTAACCTGTTGCCT (site TGTAGTCCTAG)    0.26
1  GGCGTCCCTTGGGTTCTAACCTGTTGCCT (site GGCATCCCTAG)   0.284
2  CAAGTTGCTTGGGTTCTAACCTGTTGCCT (site CAAGTTGCTAG)    1.43
3  GTGGAATCTTGGGTTCTAACCTGTTGCCT (site GTGGAATCTAG)     1.6
4  TAGCGGACTTGGGTTCTAACCTGTTGCAT (site TAGCGGACTAT)   0.992

Ask | Query (sequence): GCGAACACTTGGGTTCTAACCTGTTGCTT (site GCGAAGTCTAA) ; field requested: recombinant barcode read abundance (log10)
Reply | 0.194

Ask | Query (sequence): GGCCTCCCTTGGGTTCTAACCTGTTGCCT (site GGCCTCCCTAG) ; field requested: recombinant barcode read abundance (log10)
Reply | 0.977

Ask | Query (sequence): GTGCCCGCTTGGGTTCTAACCTGTTGCAG (site AAATGACCTAC) ; field requested: recombinant barcode read abundance (log10)
Reply | 0.0527

###

- assay_method_text: recombinant barcode read abundance after kanamycin selection (control-corrected) (log10(CPM+1)); higher = more efficient recombination; sequences stand for … in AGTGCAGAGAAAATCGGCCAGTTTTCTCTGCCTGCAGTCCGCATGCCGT…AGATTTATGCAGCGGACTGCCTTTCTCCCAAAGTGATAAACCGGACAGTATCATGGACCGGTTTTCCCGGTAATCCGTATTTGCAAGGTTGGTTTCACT; site = the 11-nt target
recorded_endpoint: recombinant barcode read abundance (log10)
Answer as a number with no unit attached.

Solved entries (count: 4):
                             sequence_chain  recorded_number
0  TAGGCGCCTTGGGTTCTAACCTGTTGCGT (site TAGGCGCCTAC)            0.735
1  GCCGCGACTTGGGTTCTAACCTGTTGCCT (site GCAGCGACTAG)            0.207
2  CCTAATCCTTGGGTTCTAACCTGTTGCGT (site CCTAAGCCTAC)             0.22
3  GTAGACCCTTGGGTTCTAACCTGTTGCCT (site TTAGACCCTAG)             1.85

# input for lookup
Ask | Query (sequence): AGGTAGACTTGGGTTCTAACCTGTTGCCA (site AGGTAGACTTG) ; field requested: recombinant barcode read abundance (log10)
Reply | 1.5

###

Examples of sequences with documented recombinant barcode read abundance (log10) follow.
- assay_method_text: recombinant barcode read abundance after kanamycin selection (control-corrected) (log10(CPM+1)); higher = more efficient recombination; sequences stand for … in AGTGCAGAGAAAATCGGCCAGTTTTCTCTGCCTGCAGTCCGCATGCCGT…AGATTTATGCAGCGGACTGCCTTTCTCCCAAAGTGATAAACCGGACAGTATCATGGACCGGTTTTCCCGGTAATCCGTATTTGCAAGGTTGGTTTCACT; site = the 11-nt target

Solved entries (count: 2):
                             sequence_chain  result
0  ATCGGACCTTGGGTTCTAACCTGTTGCCT (site ATCGGAGCTAG)   0.206
1  CTATGGACTTGGGTTCTAACCTGTTGCCT (site CTATCGACTAG)   0.196

# input for lookup
Ask | Query (sequence): CATAAGCCTTGGGTTCTAACCTGTTGCCT (site CATCAGCCTAG) ; field requested: recombinant barcode read abundance (log10)
Reply | 0.07
